Values were extracted from ChEMBL document CHEMBL5620397.

# system: Tyrosine-protein phosphatase non-receptor type 1 (Homo sapiens, UniProt P18031)
# Sequence (P18031 whole entry): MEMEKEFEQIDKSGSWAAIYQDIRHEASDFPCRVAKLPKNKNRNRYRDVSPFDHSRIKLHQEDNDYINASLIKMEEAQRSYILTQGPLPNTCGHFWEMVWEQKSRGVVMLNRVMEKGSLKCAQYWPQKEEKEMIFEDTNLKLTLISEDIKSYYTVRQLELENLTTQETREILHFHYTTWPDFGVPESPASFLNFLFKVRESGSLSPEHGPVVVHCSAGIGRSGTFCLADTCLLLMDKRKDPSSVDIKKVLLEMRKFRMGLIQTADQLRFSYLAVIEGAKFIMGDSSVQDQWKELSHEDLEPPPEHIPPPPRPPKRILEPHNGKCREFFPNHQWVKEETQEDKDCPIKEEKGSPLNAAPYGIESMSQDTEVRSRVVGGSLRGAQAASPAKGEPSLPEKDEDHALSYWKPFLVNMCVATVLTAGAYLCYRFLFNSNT
# test_summary: Inhibition of recombinant human PTP1B using pNPP as substrate preincubated for 5 mins followed by substrate addition and measured for 10 mins
measurement_name: IC50 (nM)
Express your answer in nM, writing the number without its unit.

(Q) Supply IC50 value. Item: CCCC[C@@H](C(=O)O)N1C(=O)/C(=C/c2ccc(-c3ccc(C(F)(F)F)cc3)cc2)SC1=S
(A) 1340

(Q) Report IC50, nothing else, for this compound: CCCC[C@@H](C(=O)O)N1C(=O)/C(=C/c2ccc(-c3ccc(OC)cc3)cc2)SC1=S
(A) 770

(Q) Check the records and state IC50 for CCCC[C@@H](C(=O)O)N1C(=O)/C(=C/c2ccc(-c3cccc(Cl)c3)cn2)SC1=S
(A) 390

(Q) Please indicate IC50 recorded for CCCC[C@@H](C(=O)O)N1C(=O)/C(=C/c2ccc(-c3cccc(Cl)c3)cc2)SC1=S
(A) 1870

(Q) Answer with reported IC50 of O=C(O)[C@H](C1CCCCC1)N1C(=O)/C(=C/c2ccc(-c3cccc(C(F)(F)F)c3)cc2)SC1=S
(A) 1750

(Q) Provide measured IC50 value, entry: CCCC[C@@H](C(=O)O)N1C(=O)/C(=C/c2ccc(-c3cccc(Cl)c3)c3ccccc23)SC1=S
(A) 1530

(Q) Please report IC50 for the following compound: CCCC[C@@H](C(=O)O)N1C(=O)/C(=C/c2ccc(-c3ccc(Cl)s3)cc2)SC1=S
(A) 200

(Q) Could you please provide reported IC50 for CCCC[C@@H](C(=O)O)N1C(=O)/C(=C/c2ccc(-c3ccc(Cl)cc3)cc2)SC1=S ? Thanks!
(A) 1510

(Q) Look up and report measured IC50 for this entry: CCCC[C@@H](C(=O)O)N1C(=O)/C(=C/c2ccc(-c3ccc(F)c(C(F)(F)F)c3)cc2)SC1=S
(A) 11300
